# EXPERIMENTAL_DETAILS: Cell viability (calcein AM) of non-malignant mammary epithelial cells
# Format: cell-based, human
# EXPERIMENTAL_CONDITIONS: human, non-malignant mammary epithelial cells (184A1 and MCF10A), read-out: reduction of cell viability of non-malignant mammary epithelial cells
# Description: Breast cancer cells (5,000 cells/well) and non-malignant mammary epithelial cells (8,000 cells/well) were plated on 96-well plates to observe growth of cells every 4 hours by phase contrast imaging using an IncuCyte Zoom Live Cell Analysis system (Essen Bioscience). After 24 hours of plating, inhibitors were added and monitored until control cells reached 100% confluent. […] Fluorescence was determined using a Victor3 plate reader (PerkinElmer) with excitation at 420 nm and emission at 520 nm. […]
OBSERVATION_TYPE: cytotoxicity at 48 h

Field request: cytotoxicity at 48 h | item: C=C(C)[C@H]1Cc2c(ccc3c2O[C@@H]2COc4cc(OC)c(OC)cc4[C@@H]2C3=O)O1
25 to 50%

Data credit: patent US10888569B1
